- ASSAYED_SYSTEM: HLA-DR DRB1*1302 (DR13) (Homo sapiens, UniProt P01903+P01911, A100E/A169T/K41T/L162R/M171V/P40S/Q125H/Q178H/Q39Y/Q99D/R42S/S66N/T262R/V115G/W38E/Y61H)
- Sequence (P01903 26-254 limits assumed, other chains not shown): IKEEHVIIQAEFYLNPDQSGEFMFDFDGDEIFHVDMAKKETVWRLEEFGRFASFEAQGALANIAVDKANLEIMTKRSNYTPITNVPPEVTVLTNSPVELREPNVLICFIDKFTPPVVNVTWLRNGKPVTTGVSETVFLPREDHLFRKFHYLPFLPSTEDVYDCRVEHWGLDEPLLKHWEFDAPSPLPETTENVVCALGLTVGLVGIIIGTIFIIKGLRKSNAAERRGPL
- TEST_PROTOCOL: biochemical
- Format: binding
- EXPERIMENTAL_CONDITIONS: DRBI *1302
pIC50: −log10 of the molar value.

SMILES_STR	COMPARATIVE_SIGN	pIC50
CC[C@H](C)[C@H](NC(=O)[C@H](CO)NC(=O)[C@H](CO)NC(=O)[C@H](CC(=O)O)NC(=O)[C@H](C)NC(=O)[C@H](CC(N)=O)NC(=O)[C@@H](NC(=O)[C@H](Cc1ccc(O)cc1)NC(=O)[C@H](C)NC(=O)[C@@H](NC(=O)CNC(=O)[C@H](CCCNC(=N)N)NC(=O)[C@@H](N)CCC(=O)O)C(C)C)[C@@H](C)CC)C(=O)N[C@@H](CCC(=O)O)C(=O)NCC(=O)O	=	5.43
CSCC[C@H](NC(=O)[C@H](CCC(=O)O)NC(=O)[C@H](CCC(N)=O)NC(=O)[C@@H]1CCCN1)C(=O)N[C@@H](CCCCN)C(=O)N[C@H](C(=O)N[C@@H](Cc1ccc(O)cc1)C(=O)N[C@@H](CO)C(=O)N[C@H](C(=O)N[C@@H](CO)C(=O)N[C@@H](Cc1ccccc1)C(=O)N[C@@H](CC(=O)O)C(=O)N[C@@H](CO)C(=O)N[C@@H](CC(C)C)C(=O)N[C@@H](Cc1ccccc1)C(=O)O)C(C)C)[C@@H](C)O	=	4.61
CC[C@H](C)[C@H](N)C(=O)N[C@@H](Cc1ccc(O)cc1)C(=O)N[C@@H](CO)C(=O)N[C@H](C(=O)N[C@@H](CO)C(=O)N[C@@H](CCSC)C(=O)N[C@@H](CCCCN)C(=O)N[C@@H](Cc1c[nH]cn1)C(=O)N1CCC[C@H]1C(=O)N[C@@H](CCC(N)=O)C(=O)N[C@@H](CCC(=O)O)C(=O)N[C@@H](CCSC)C(=O)N[C@@H](CCCCN)C(=O)N[C@H](C(=O)N[C@@H](Cc1ccc(O)cc1)C(=O)O)[C@@H](C)O)[C@@H](C)CC	<	4.46
CSCC[C@H](NC(=O)[C@H](CC(=O)O)NC(=O)[C@H](Cc1ccc(O)cc1)NC(=O)[C@H](CC(C)C)NC(=O)[C@@H]1CCCN1C(=O)[C@H](Cc1c[nH]cn1)NC(=O)[C@@H]1CCCN1C(=O)[C@H](Cc1ccccc1)NC(=O)[C@H](CO)NC(=O)[C@H](Cc1c[nH]cn1)NC(=O)[C@H](CO)NC(=O)[C@@H](NC(=O)[C@H](CCC(N)=O)NC(=O)[C@H](Cc1ccccc1)NC(=O)[C@@H](N)C(C)C)C(C)C)C(=O)O	=	7.08
CC(C)C[C@H](NC(=O)[C@@H]1CCCN1C(=O)[C@H](Cc1c[nH]cn1)NC(=O)[C@@H]1CCCN1C(=O)[C@H](Cc1ccccc1)NC(=O)[C@H](CO)NC(=O)[C@H](Cc1c[nH]cn1)NC(=O)[C@H](CO)NC(=O)[C@@H](NC(=O)[C@H](CCC(N)=O)NC(=O)[C@H](Cc1ccccc1)NC(=O)[C@@H](NC(=O)[C@H](CCC(N)=O)NC(=O)CN)C(C)C)C(C)C)C(=O)N[C@@H](Cc1ccc(O)cc1)C(=O)O	=	6.84

---

Overview of reported log10(IC50) across a group of sequences:
- ASSAYED_SYSTEM: HLA-DR DRB1*1302 (DR13) (Homo sapiens, UniProt P01903+P01911, A100E/A169T/K41T/L162R/M171V/P40S/Q125H/Q178H/Q39Y/Q99D/R42S/S66N/T262R/V115G/W38E/Y61H)
- TEST_PROTOCOL: biochemical
- Type: binding
- EXPERIMENTAL_CONDITIONS: read-out: DRBI *1302
MEASURE: log10(IC50) (log10 of the value in nM)

ENTRY_SEQUENCE	log10(IC50)
KSKFNILSSPLFNNF	1.40
FPTIPLSRLFDNAML	3.97
VYQLDIQSTKEDLRV	2.85
GGVLVNEILNHMKRA	1.69
VRVEILRNFYVINRL	0.76
LGFLQRSSNTQTQKL	1.32
DSSLEGNYTLRVDCT	0.88
RGGMVFELANSIVLP	0.64
LEDLLMGTLGIVCPI	3.23
ALLKNYGLLYCFRIW	1.00
SMEYKKDFLITARKY	3.58
VYDFVFADLRGVYRD	1.90
TAWTIYRVEILRNFY	1.86
KKPLNEILIRCHCQ	2.98

---

- ASSAYED_SYSTEM: HLA-DR DRB1*0405 (DR4) (Homo sapiens, UniProt P01903+P01911, A100R/A169T/D86S/F76Y/I96L/K127E/L162R/M171V/N62H/P40V/Q125Y/R42H/S133A/S149N/S66Y/V115G/V209L/W38E)
- TEST_PROTOCOL: biochemical
- Assay type: binding
- EXPERIMENTAL_CONDITIONS: DRB1 *0405
No end group written: not given here.
// classify: if (IC50 < 3000 nM) t else f

ENTRY_SEQUENCE	QUALITATIVE_LABEL
HLKRYYGRILHYLKA	t
ALSTLVLNRLKVGLQ	t
FLRIVQTRSVEGSTGF	t
MKHILYISFYFILVN	f
GLALLSEAVLRGQAL [GLALLSEAVLRGQAL]	t
RLRIVRGTQLFEDNYAL	t
YLVCGERGFFYTDKT	f
RSSNTQTQKLLWQLN	f
NYSVYGNTLEQTVKK	t
HQAISPRTLNGPGPGSPAIF	f
LHKLQTYPRTNTGSG	f
AYVLLSEKKISSIQS	f
DFAFADLTVVYREGN	t
RPIVNMDYVVGARTFRREKR	t
FVVYRDSIPHAACHK	t
TSNLSTTVLGKLSQE	f
RETLQEIVLHLEPQN	t
QCQKLLWQLNGRLEY	t
GEALSTLVLNRLKVG	f
WAGLLLDTRTLEVQS	t
LRTLQQMLLGTLQVV	t
SNLELLRICLLLIQS	t
FVNQHLCGSDLVEAL [FVNQHLCGSDLVEAL]	f
VCLLFYSKVRKYRYY	t
YGRILHYLKAKEDSH	t
DFSYLQDSDPDSFQD	f
FPDWQNYTPGPGTRF	f
HYLKAKEDSHTAWTI	f
YLVCGERGFFYTPKT	t
RTGQIFKQTYSKFDT	t
FVNQHLCGSHLVEAL [FVNQHLCGSHLVEAL]	f
GAPLGGAARALAHGV	f
TCVLGKLSQELHKLQ	f
REVYKFLFTDLRIVY	t
TIVYRDDTPHGVCTK	f
DMDKVETFLRIVQTR	t
DFAFTDLTIVYRDDT	t
KDYILDLQPETTDLH	t

---

Overview of reported pIC50 across a group of sequences:
- ASSAYED_SYSTEM: HLA-DR DRB1*1501 (DR15) (Homo sapiens, UniProt P01903+P01911)
- TEST_PROTOCOL: biochemical
- Type: binding
- EXPERIMENTAL_CONDITIONS: read-out: DRBI *1501
pIC50: −log10 of the molar value.

ENTRY_SEQUENCE	pIC50
DSSLEGNYTLRVDCT	5.92
GGVLVNEILNHMKRA	6.24
RLFDNAMLRAHRLHQ	7.74

---

- ASSAYED_SYSTEM: HLA-DR DRB5*0101 (DR51) (Homo sapiens, UniProt P01903+Q30154)
- TEST_PROTOCOL: biochemical
- Type: binding
- EXPERIMENTAL_CONDITIONS: DRB5 *0101

SMILES_STR	COMPARATIVE_SIGN	IC50, µM
CSCC[C@H](NC(=O)[C@H](CC(C)C)NC(=O)[C@@H]1CCCN1C(=O)[C@@H](NC(=O)[C@H](CS)NC(=O)[C@H](CC(=O)O)NC(=O)[C@@H](NC(=O)[C@H](CCCNC(=N)N)NC(=O)[C@H](CC(C)C)NC(=O)[C@@H](NC(=O)[C@H](Cc1ccc(O)cc1)NC(=O)[C@@H](N)CC(N)=O)[C@@H](C)O)C(C)C)[C@@H](C)O)C(=O)N[C@@H](Cc1ccc(O)cc1)C(=O)N[C@@H](CO)C(=O)N[C@@H](CC(C)C)C(=O)O	=	66.7
CC[C@H](C)[C@H](NC(=O)[C@H](CO)NC(=O)[C@@H](NC(=O)CNC(=O)[C@H](CCC(=O)O)NC(=O)[C@@H]1CCCN1)C(C)C)C(=O)N[C@@H](Cc1c[nH]c2ccccc12)C(=O)N[C@@H](CC(N)=O)C(=O)N1CCC[C@H]1C(=O)N[C@H](C(=O)N[C@@H](CC(C)C)C(=O)N[C@@H](CC(C)C)C(=O)N[C@@H](Cc1c[nH]c2ccccc12)C(=O)N[C@@H](CCC(N)=O)C(=O)N1CCC[C@H]1C(=O)O)[C@@H](C)CC	=	22.2
CC(C)C[C@H](NC(=O)CNC(=O)[C@H](CC(N)=O)NC(=O)[C@@H](N)Cc1ccc(O)cc1)C(=O)N[C@@H](CC(C)C)C(=O)N1CCC[C@H]1C(=O)N1CCC[C@H]1C(=O)N[C@@H](Cc1ccc(O)cc1)C(=O)N[C@@H](C)C(=O)N[C@@H](CO)C(=O)N[C@@H](CS)C(=O)N[C@@H](Cc1c[nH]cn1)C(=O)N[C@@H](CC(C)C)C(=O)N[C@H](C(=O)N[C@@H](CCC(=O)O)C(=O)O)[C@@H](C)O	≥	100
